test: gradient 5% acetonitrile 3 min, to 50% in 2 min, to 85% in 15 min, held 3 min, 100 µL/min; conditions: column: Zorbax Extend-C18 2.1 x 50 mm; eluents: water / acetonitrile, 0.1% formic acid
Grouping key: RP-LC retention time. Bins: low interval (below 600 s), middle interval (600 s to below 900 s), high interval (900 s or more)

Into which bin does this compound go? Cc1nc(C2CCOCC2)n(C2CCN(S(=O)(=O)c3cccc(Cl)c3)C2)n1 (centres undefined)
middle interval

State the class of the compound shown: Cc1ccc(S(=O)(=O)N2CCCCC2c2nncn2C)cc1F (centres undefined)
middle interval

# bin label for O=C(Nc1ccc2c(c1)Cc1ccccc1-2)c1csc(Nc2ncccn2)n1
high interval

Class? Entry: CC(C)Oc1ccc(CN2CC(N(Cc3ccncc3)S(C)(=O)=O)C2)cc1
low interval

GET /class?item= COc1cccc2cc(C(=O)NCc3cccnc3)oc12
low interval

Using the reported RP-LC retention time, which band applies to O=C(Cc1ccc(F)cc1)NCC(=O)N1CCOC(c2ccccc2)C1 (centres undefined) ?
middle interval

Category lookup for the compound Cc1ccc(-c2noc(-c3ccccc3S(=O)(=O)N3CC=C(c4ccccc4)CC3)n2)cc1
high interval

Exercise: read the entry Cc1ccn2cc(-c3ccc(NS(=O)(=O)c4cccc([N+](=O)[O-])c4)cc3)nc2n1 and state which class it falls under.
middle interval

Reference source: the METLIN SMRT retention time set (Domingo-Almenara et al. 2019)
